Recorded Initial Rate (%Overhang/min), 3′-AL values for a group of substances are listed next.
Tested on: fluorescein-labeled IRES SLIIb
Experiment Notes: Time-dependent MALDI-TOF mass spectrometry of SLIIb cleavage
Type: biochemical, hepatitis C virus
Run Parameters: overhang 3′-aldehyde; MALDI-TOF time dependence

Task: Name the reported Initial Rate (%Overhang/min), 3′-AL value associated with the substance GGHYRFA-Cu [7-Cu]
Result: 0.8 ± 0.1 %Overhang/min

Task: Return reported Initial Rate (%Overhang/min), 3′-AL; argument: GGHYRFK-Cu [3-Cu]
Result: 0.8 ± 0.1 %Overhang/min

Task: Any idea what Initial Rate (%Overhang/min), 3′-AL was measured for GGHKFRY-Cu [8-Cu] ?
Result: 0.2 ± 0.1 %Overhang/min

Task: # query: Initial Rate (%Overhang/min), 3′-AL of entry GGHYRAK-Cu [6-Cu]
Result: 0.8 ± 0.1 %Overhang/min

Task: Value lookup for Initial Rate (%Overhang/min), 3′-AL; key = GGHARFK-Cu [4-Cu]
Result: 0.5 ± 0.1 %Overhang/min

Others:
Task: Given the substance GGHYAFK-Cu [5-Cu] , what is its reported Initial Rate (%Overhang/min), 3′-AL?
Result: 0.2 ± 0.1 %Overhang/min
